Exercise: for every item that follows, state its recorded pIC50.
- test system: NS5B570-Con1 (Delta-21) (Hepatitis C virus genotype 1b)
- experiment summary: biochemical
pIC50: −log10 of the molar value.

In: Requested field: pIC50. Item: CC[C@]1(O)[C@H](n2ccc(=O)[nH]c2=O)O[C@](F)(COP(=O)(O)OP(=O)(O)OP(=O)(O)O)[C@H]1O [compound 239]
Out: 4.00 to 5.00

In: I'd like to know its pIC50. The compound in question is C[C@@]1(O)[C@H](O)[C@@](CF)(COP(=O)(O)OP(=O)(O)OP(=O)(O)O)O[C@H]1n1cnc2c(=O)[nH]c(N)nc21 [compound 34]
Out: > 6.00

In: Query (compound): C=CC[C@@]1(O)[C@H](O)[C@@](CF)(COP(=O)(O)OP(=O)(O)OP(=O)(O)O)O[C@H]1n1ccc(=O)[nH]c1=O [compound 253] ; field requested: pIC50
Out: 4.00 to 5.00

In: pIC50 lookup needed for C#C[C@]1(COP(=O)(O)OP(=O)(O)OP(=O)(O)O)O[C@@H](n2ccc(N)nc2=O)C(F)(F)[C@@H]1O [compound 279] , thanks.
Out: 4.00 to 5.00

In: For the compound C=C=C[C@@]1(O)[C@H](O)[C@@](CF)(COP(=O)(O)OP(=O)(O)OP(=O)(O)O)O[C@H]1n1ccc(=O)[nH]c1=O [compound 255] , what pIC50 is on record?
Out: 5.00 to 6.00

In: Give the measured pIC50 of C[C@]1(O)[C@H](n2ccc(N)nc2=O)O[C@](C)(COP(=O)(O)OP(=O)(O)OP(=O)(O)O)[C@H]1O [compound 243] .
Out: 5.00 to 6.00

In: Need pIC50 of C=C[C@]1(COP(=O)(O)OP(=O)(O)OP(=O)(O)O)O[C@@H](n2ccc(=O)[nH]c2=O)C(F)(F)[C@@H]1O [compound 72] , thanks.
Out: 4.00 to 5.00

In: Would you mind telling me what pIC50 value was observed for C#C[C@]1(O)[C@H](n2cnc3c(N)ncnc32)O[C@](C)(COP(=O)(O)OP(=O)(O)OP(=O)(O)O)[C@H]1O [compound 59] ?
Out: 5.00 to 6.00

In: Tell me the measured pIC50 of C[C@@]1(O)[C@H](O)[C@@](CN=[N+]=[N-])(COP(=O)(O)OP(=O)(O)OP(=O)(O)O)O[C@H]1n1ccc(=O)[nH]c1=O [compound 249] , please.
Out: 4.00 to 5.00

In: Suppose we examine the compound O=c1ccn([C@@H]2O[C@](CF)(COP(=O)(O)OP(=O)(O)OP(=O)(O)O)[C@@H](O)[C@]2(O)CF)c(=O)[nH]1 [compound 256] ; what pIC50 value has been reported?
Out: 4.00 to 5.00

In: I have this compound here, C[C@]1(O)[C@H](n2cnc3c(N)ncnc32)O[C@](F)(COP(=O)(O)OP(=O)(O)OP(=O)(O)O)[C@H]1O [compound 240] , and I need its recorded pIC50.
Out: > 6.00

In: What value of pIC50 has been recorded for this entry: C[C@]1(Cl)[C@H](n2ccc(=O)[nH]c2=O)O[C@](F)(COP(=O)(O)OP(=O)(O)OP(=O)(O)O)[C@H]1O [compound 149]
Out: > 6.00

In: Consider the compound C[C@@]1(O)[C@H](O)[C@@](CCl)(COP(=O)(O)OP(=O)(O)OP(=O)(O)O)O[C@H]1n1ccc(=O)[nH]c1=O [compound 244] and give its measured pIC50.
Out: > 6.00
